test: Body weight and food intake in C57BL/6 mice, fusion protein conjugates, 30 nmol/kg daily 10 days; type: in vivo
assay-metric: Body weight reduction at 30 nmol/kg (% reduction compared to vehicle)(Day11) (%)

molecule: MLC027: fusion polypeptide SEQ ID NO: 274 conjugated with Moiety A at 55K of Linker (conjugate, Moiety A conjugated at linker K55) HGEGTFTSDVSSYLEEQAAREFIAWLVRGGGGAQPGAQPGAQPGAQPGAQPGAQPGAQPGAQPGQEPGAQPGQEPGAQPGQEPGQKPGQEPGQEPGQEPGQEPGAQPGAQPARQGDHCPLGPGRCCRLHTVRASLEDLGWADWVLSPREVQVTMCIGACPSQFRAANLHAQIKTSLHRLRPDTVPAPCCVPASYNPMVLIQRTDTGVSLQTYDDLLARDCHCI
assay-value: 19.1
--
molecule: MLC046: fusion polypeptide SEQ ID NO: 329 conjugated with Moiety A at 60K of linker (conjugate, Moiety A conjugated at linker K60) HGEGTFTSDVSSYLEEQAAREFIAWLVRGGGGQEPGAQPGQEPGAQPGQEPGAQPGQEPGAQPGQEPGAQPGQEPGAQPGAQPGAQPGAQKGAQPGAQPGAQPGAQPGAQPARQGDHCPLGPGRCCRLHTVRASLEDLGWADWVLSPREVQVTMCIGACPSQFRAANLHAQIKTSLHRLRPDTVPAPCCVPASYNPMVLIQRTDTGVSLQTYDDLLARDCHCI
assay-value: 24.6
--
molecule: MLC004: fusion polypeptide SEQ ID NO: 251 conjugated with Moiety A at 26K of GLP-1 (conjugate, Moiety A conjugated at K26) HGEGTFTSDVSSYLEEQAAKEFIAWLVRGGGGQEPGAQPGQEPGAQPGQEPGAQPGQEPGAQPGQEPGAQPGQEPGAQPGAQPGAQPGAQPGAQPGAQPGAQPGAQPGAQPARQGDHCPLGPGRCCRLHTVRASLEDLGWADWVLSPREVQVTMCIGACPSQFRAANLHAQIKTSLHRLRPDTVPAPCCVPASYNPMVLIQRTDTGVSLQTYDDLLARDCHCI
assay-value: 18.3
--
molecule: MLC075: fusion polypeptide SEQ ID NO: 369 conjugated with Moiety C at 41C of Linker (conjugate, Moiety C conjugated at linker C41) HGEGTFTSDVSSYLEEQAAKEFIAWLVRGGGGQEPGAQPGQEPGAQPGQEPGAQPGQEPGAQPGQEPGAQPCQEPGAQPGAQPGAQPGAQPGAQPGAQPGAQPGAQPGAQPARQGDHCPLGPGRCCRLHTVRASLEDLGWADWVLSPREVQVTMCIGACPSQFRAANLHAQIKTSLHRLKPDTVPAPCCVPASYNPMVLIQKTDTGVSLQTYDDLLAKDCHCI
assay-value: 20.7
